- test summary: in vitro
- condition notes: human, hela cells, % viability
measured metric: viability at 28.5 h, 10 µM (%)
Reply numerically in %, unit not repeated.

Consider the following illustrative entries.
[[record]]
molecule = "Cn1cc(C2C[S+]([O-])CCN2Cc2csc3ccccc23)cn1 (stereo not shown)"
measured_metric = "viability at 28.5 h, 10 µM"
result_unit = "%"
experimental_value = 103

[[record]]
molecule = "COc1cccc(C(NC(=O)c2cc(CN3CCOCC3)c(C)o2)c2ccccc2)c1 (stereo not shown)"
measured_metric = "viability at 28.5 h, 10 µM"
result_unit = "%"
experimental_value = 93.4

[[record]]
molecule = "CN(C)c1cccc(Nc2cc(-c3ccco3)ncn2)c1"
measured_metric = "viability at 28.5 h, 10 µM"
result_unit = "%"
experimental_value = 87.5

[[record]]
molecule = "COC[C@@H]1OC[C@@]2(C)C3CC[C@@H](O)[C@@H](CC(=O)NCc4ccccc4)[C@]3(C)CC[C@H]2O1 (stereo partly shown)"
measured_metric = "viability at 28.5 h, 10 µM"
result_unit = "%"
experimental_value = 79.1

[[record]]
molecule = "O=C(O)CCCSCC(=O)Nc1ccccc1"
measured_metric = "viability at 28.5 h, 10 µM"
result_unit = "%"
experimental_value = 88.4


[Q] Could you share which viability at 28.5 h, 10 µM value was measured for C#CCOC(=O)Nc1cnc(N2CCOCC2)c(C(F)(F)F)c1 ?
[A] 90.5

[Q] Could you share which viability at 28.5 h, 10 µM value was measured for Cc1cc2ccccc2n2c(=O)n(CC(=O)N3CCC(C)CC3)nc12 ?
[A] 92.7

[Q] Could you share which viability at 28.5 h, 10 µM value was measured for CN(C)S(=O)(=O)c1c(Cl)cccc1Cl ?
[A] 84

[Q] Could you share which viability at 28.5 h, 10 µM value was measured for CCn1cnc2cc(NC(=O)c3ccc(C)n(C)c3=O)ccc21 ?
[A] 106

[Q] Could you share which viability at 28.5 h, 10 µM value was measured for CC(=O)N1CCc2sccc2C1c1ccc(NCc2ccc(F)cc2F)cc1 (stereo not shown) ?
[A] 93.8

###

- test summary: in vitro
- condition notes: human, hela cells, % viability
Consider the following compounds and their measured viability at 28.5 h, 10 µM readings.
Reply numerically in %, unit not repeated.

Consider the following illustrative entries.
[[record]]
compound = "CNc1ncnc2c1ncn2C1CC(O)C(CO)O1 (stereo not shown)"
result_unit = "%"
experimental_value = 96.7

[[record]]
compound = "CCOC(=O)N1CCN(c2cccc3[nH]c(C(=O)O)cc23)CC1"
result_unit = "%"
experimental_value = 93.9

[[record]]
compound = "Cc1sc2nc(Cc3ccccc3)n(C3CCN(C(=O)c4ccco4)CC3)c(=O)c2c1C"
result_unit = "%"
experimental_value = 97.3


[Q] Could you share which viability at 28.5 h, 10 µM value was measured for CC1CN(c2cc(CO)c(F)cn2)CC2(CCOC2C)O1 (stereo not shown) ?
[A] 101

[Q] Could you share which viability at 28.5 h, 10 µM value was measured for CCOc1cc(/C=N/NC(=O)c2cncc(Br)c2)c(Br)c(Br)c1O ?
[A] 86.3

[Q] Could you share which viability at 28.5 h, 10 µM value was measured for C/C(N)=C(/C#N)C(NC(=O)C1CCCCC1)(C(F)(F)F)C(F)(F)F ?
[A] 91.1

[Q] Could you share which viability at 28.5 h, 10 µM value was measured for CCCCCC(=O)Nc1ccc(C(=O)CSc2nnc(-c3ccco3)o2)cc1 ?
[A] 84

[Q] Could you share which viability at 28.5 h, 10 µM value was measured for COCC(=O)N1CCC2(C/C=C/C[C@H]3COCC[C@@H]3NC(=O)CNC2=O)CC1 ?
[A] 95.2

[Q] Could you share which viability at 28.5 h, 10 µM value was measured for CN1CCN(c2ccc(-c3cncc(NCCc4ccccn4)n3)cn2)CC1 ?
[A] 87.2

[Q] Could you share which viability at 28.5 h, 10 µM value was measured for CC(C)C1OC(NCc2ccccc2Cl)=NC1=O (stereo not shown) ?
[A] 95.1

[Q] Could you share which viability at 28.5 h, 10 µM value was measured for c1ccc2c(c1)OCC(COc1nccc(N3CCCN(Cc4ccc5c(c4)OCO5)CC3)n1)O2 (stereo not shown) [CBK083235T] ?
[A] 85.7

[Q] Could you share which viability at 28.5 h, 10 µM value was measured for N#Cc1ccccc1NC(=O)CSc1nc2cc(Cl)ccc2[nH]1 ?
[A] 99.4

[Q] Could you share which viability at 28.5 h, 10 µM value was measured for COC(=O)c1cn([C@H]2CO[C@H]3[C@@H]2OC[C@@H]3NC(=O)NC2CCCCC2)nn1 ?
[A] 82.4

[Q] Could you share which viability at 28.5 h, 10 µM value was measured for CN(C(=O)C1CC1)C1CCN(c2ncnc3ccccc23)CC1 ?
[A] 80

[Q] Could you share which viability at 28.5 h, 10 µM value was measured for CC(C)(C)C(=O)N1CC(n2nc(-c3ccccc3)ccc2=O)C1 ?
[A] 92.1

[Q] Could you share which viability at 28.5 h, 10 µM value was measured for CN(C)CCN(C)c1ccc(-c2ccc(F)c(Cl)c2)cn1 ?
[A] 96.8

###

- test summary: in vitro
- condition notes: human, hela cells, % viability
measured metric: viability at 28.5 h, 10 µM (%)
Reply numerically in %, unit not repeated.

Consider the following illustrative entries.
[[record]]
compound = "O=S(=O)(NCCc1csc(-c2cccnc2)n1)c1cccnc1"
measured_metric = "viability at 28.5 h, 10 µM"
experimental_value = 91.8

[[record]]
compound = "CC(C)Nc1nccnc1SCc1ccc(Cl)c(Cl)c1"
measured_metric = "viability at 28.5 h, 10 µM"
experimental_value = 89.8

[[record]]
compound = "O=C(Nc1ccc(N2CCNCC2)c2ccccc12)c1cccnc1 [CBK036336T]"
measured_metric = "viability at 28.5 h, 10 µM"
experimental_value = 92.9

[[record]]
compound = "Oc1c(Br)cc(Cl)cc1/C=N/Nc1nnc2c(n1)[nH]c1ccccc12"
measured_metric = "viability at 28.5 h, 10 µM"
experimental_value = 114


[Q] Could you share which viability at 28.5 h, 10 µM value was measured for C/C=C/c1ccc(OCCCSc2nc(C)cc(O)n2)c(OC)c1 ?
[A] 93.5

[Q] Could you share which viability at 28.5 h, 10 µM value was measured for CCC(NC(=O)C(c1cccs1)c1cccs1)c1ccc(F)cc1 (stereo not shown) ?
[A] 93.4

[Q] Could you share which viability at 28.5 h, 10 µM value was measured for O=C(O)CCc1ccc(-c2cccs2)n1NC(=O)c1ccc(Cl)cc1 ?
[A] 95.5

[Q] Could you share which viability at 28.5 h, 10 µM value was measured for Cc1ccc(C(=O)O)cc1S(=O)(=O)N(CCO)CCO ?
[A] 102

[Q] Could you share which viability at 28.5 h, 10 µM value was measured for C[C@]12C(=O)c3ccccc3NC(=O)C1[C@H]2C(=O)N1CCCCC1 (stereo partly shown) ?
[A] 92

[Q] Could you share which viability at 28.5 h, 10 µM value was measured for Cc1ccc(C(O)CN2CCC(O)(c3ccccc3F)CC2)cc1 (stereo not shown) ?
[A] 93.8

[Q] Could you share which viability at 28.5 h, 10 µM value was measured for O=C(C1=Cc2ccccc2OC1)N1CCn2cc(C(F)(F)F)nc2C1 ?
[A] 103

[Q] Could you share which viability at 28.5 h, 10 µM value was measured for COC(=O)CCc1ccc(S(=O)(=O)N2CCCN(Cc3cccc(C(F)(F)F)c3)CC2)cc1 ?
[A] 100

[Q] Could you share which viability at 28.5 h, 10 µM value was measured for O=C(C1CCCCC1)N1CCC(n2c(=O)oc3ccccc32)CC1 ?
[A] 97.2

[Q] Could you share which viability at 28.5 h, 10 µM value was measured for N=c1n(CC(=O)c2ccc(-c3ccccc3)cc2)c2ccccc2n1Cc1ccccc1 [CBK262128B] ?
[A] 99.3

[Q] Could you share which viability at 28.5 h, 10 µM value was measured for Cc1csc(C(Cc2ccsc2)NC(=O)Cc2ccccn2)n1 (stereo not shown) ?
[A] 94.9

[Q] Could you share which viability at 28.5 h, 10 µM value was measured for Cc1nc2ccc(C(=O)NC(c3ccccc3)c3cccnc3)cc2[nH]1 (stereo not shown) ?
[A] 103

[Q] Could you share which viability at 28.5 h, 10 µM value was measured for O=C(Nc1ccc2[nH]ccc2c1)N1CCc2ccccc2C1 ?
[A] 84.5

[Q] Could you share which viability at 28.5 h, 10 µM value was measured for CC1CCCC(C)N1C(=O)Cn1ncn2c(cc3ccsc32)c1=O (stereo not shown) ?
[A] 110

[Q] Could you share which viability at 28.5 h, 10 µM value was measured for c1ccc(COc2ccc3[nH]c4c(c3c2)CCNC42CCCN(CC3CC3)C2)cc1 (stereo not shown) ?
[A] 100

###

- test summary: in vitro
- condition notes: human, hela cells, % viability
measured metric: viability at 28.5 h, 10 µM (%)
Reply numerically in %, unit not repeated.

Consider the following illustrative entries.
[[record]]
compound = "O=C1OC[C@@H](c2ccccc2)N1C(=O)[C@@H]1CN(Cc2ccccc2)C[C@H]1c1cc2ccccc2o1 [CBK022599C]"
experimental_value = 111

[[record]]
compound = "O=C(COc1ccc2ccccc2c1Br)NCc1ccccn1 [CBK267361]"
experimental_value = 84.1

[[record]]
compound = "CC(C)(CC(=O)O)CC(=O)Nc1ccc(N2CCCC2=O)cc1 [CBK299787]"
experimental_value = 109

[[record]]
compound = "N#Cc1c2ccccc2cn1Cc1cccc(Cl)c1 [CBK019531]"
experimental_value = 82.6

[[record]]
compound = "O=C(NCc1ccccn1)C1CCN(S(=O)(=O)c2ccc(Cl)cc2)CC1 [CBK264959]"
experimental_value = 90.2

[[record]]
compound = "O=[N+]([O-])c1ccccc1CN1CCN(C/C=C/c2ccccc2)CC1 [CBK261518]"
experimental_value = 87.1

[[record]]
compound = "C=CCn1c(Cc2csc(NC(=O)c3ccc(Cl)cc3)n2)n[nH]c1=S [CBK295318]"
experimental_value = 86.7

[[record]]
compound = "O=C(NCCN1CCCCC1)c1cccc(Oc2ccccc2)c1 [CBK270335]"
experimental_value = 98.2

[[record]]
compound = "Cc1[nH]c(=O)[nH]c(=O)c1N(CCO)CCO [CBK262052]"
experimental_value = 94.8

[[record]]
compound = "Cc1ccccc1-c1ccccc1CC1(C(=O)N(C)C)CCN(C(=O)C2CCCCC2)CC1 [CBK285718]"
experimental_value = 98.2


[Q] Could you share which viability at 28.5 h, 10 µM value was measured for CCCNc1cncc(-c2cccc(O)c2)n1 [CBK065447] ?
[A] 109

[Q] Could you share which viability at 28.5 h, 10 µM value was measured for COc1nc2ccn(CCN3C(=O)CCC3=O)c(=O)c2cc1C#N [CBK307422] ?
[A] 94.7
